In this section we review reported CC50 values for a set of compounds.
Experiment: Cytotoxicity against mouse NIH/3T3 cells
Type: cell-based, NIH3T3
A number alone suffices; assume µM.

compound | readout units | reported measurement
N#Cc1ncc(Br)c(N(NC(=O)C2CCC3(CC2)OOC2(OO3)C3CC4CC(C3)CC2C4)C2CCCCC2)n1 (stereo not drawn) | µM | 1.4

Need CC50, item CC(C)CN(NC(=O)C1CCC2(CC1)OOC1(OO2)C2CC3CC(C2)CC1C3)c1cc(Cl)nc(C#N)n1 (stereo not drawn)
1.7

Need CC50, item CC(C)CN(NC(=O)C1CCC2(CC1)OOC1(OO2)C2CC3CC(C2)CC1C3)c1ccnc(C#N)n1 (stereo not drawn)
0.9

Need CC50, item CC(C)CN(NC(=O)C1CCC2(CC1)OOC1(OO2)C2CC3CC(C2)CC1C3)c1nc(C#N)ncc1Cl (stereo not drawn)
4.5
